Where do the numbers come from? From PubChem BioAssay (NCI).

- ASSAY REMARKS: NCI Yeast Anticancer Drug Screen. Data for the cln2 rad14 strain (AID 165);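 also: 0% = growth equal to vehicle treated cultures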
- CONDITION DETAILS: S. cerevisiae cln2 rad14 strain, at 50.0 µM, hits give high values
Compounds without any hit were thinned out: in the full panel of roughly 79,000, 15% have a hit.
Where growth inhibition equals or exceeds 10%, the correct label is 1; where it does not, the label is 0.

| COMPOUND | GROUP LABEL |
| --- | --- |
| COC(=O)Cc1nc2ccccc2o1 | 1 |
| COC(=O)c1cccnc1F | 0 |
| C=C1CC(CC(=O)C(C)CC2CC(=C)C(=O)O2)OC1=O (centres undefined) | 0 |
| N#Cc1cccc(N2C(=O)c3c(c(-c4ccccc4)c(-c4ccc(Sc5ccc(-c6c(-c7ccccc7)c7c(c(-c8ccccc8)c6-c6ccccc6)C(=O)N(c6cccc(C#N)c6)C7=O)cc5)cc4)c(-c4ccccc4)c3-c3ccccc3)C2=O)c1 | 0 |
| COC(=O)c1nnn(-c2cc(Cl)ccc2Cl)c1C(=O)c1ccc(OC)cc1 | 1 |
| CN(CCc1ccccn1)c1ccc2c(c1)C(=O)c1ccccc1-2 | 0 |
| Cc1cc(N(CCC#N)CCC#N)ccc1/C=C1N=C(/C=C\c2ccccc2)N(NC(=O)CC(=O)Nc2ccccc2Cl)C\1=O | 1 |
| COc1ccc(C(Nc2ccccn2)c2cc(C(C)(C)C)cc(C(C)(C)C)c2O)cc1 (centres undefined) | 1 |
| CC(=O)c1c(C)n(-c2ccccc2)c2c1nnc1ccccc12 | 0 |

* * *

- ASSAY REMARKS: NCI Yeast Anticancer Drug Screen. Data for the cln2 rad14 strain (AID 165);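 also: 0% = growth equal to vehicle treated cultures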
- CONDITION DETAILS: S. cerevisiae cln2 rad14 strain, at 50.0 µM, hits give high values
The panel holds about 79,000 compounds, 15% with a hit somewhere; the sample as a whole holds those more often.
RECORDED ENDPOINT: growth inhibition (%)

| CHEM SMILES | RECORDED ENDPOINT | UNIT DESCRIPTOR | VALUE OBSERVED |
| --- | --- | --- | --- |
| Cc1ccc(S(=O)(=O)Nn2c(O)c(C#N)c(-c3ccc(N(C)C)cc3)c(C#N)c2=O)cc1 | growth inhibition | % | 1.7 |
| N=c1oc2ccccc2cc1-c1nc2ccccc2c(=O)[nH]1 | growth inhibition | % | 11.7 |
| Cc1cc(=O)[nH]c2[nH][nH]c(=O)c12 | growth inhibition | % | -7.35 |
| OCC(CO)(CO)CO | growth inhibition | % | -16.1 |
| COCCN1CC(=O)N2Cc3ccccc3CN2C(=O)C1 | growth inhibition | % | -9.5 |
| c1ccc2c(C3=NCCO3)cccc2c1 | growth inhibition | % | -34.6 |
| O=C(/C=C/C=C/c1ccccc1)CCc1ccccc1 | growth inhibition | % | 30.6 |
| Clc1ccc(-c2nc3ccccc3cc2N2CCOCC2)cc1 | growth inhibition | % | 49.7 |
| CC(C)CCC[C@@H](C)[C@H]1CC[C@H]2[C@@H]3CC=C4C[C@@H](OC(=O)c5cccc6c(=O)c7ccccc7[nH]c56)CC[C@]4(C)[C@H]3CC[C@]12C | growth inhibition | % | -4.95 |
| CNC(=O)c1ccccc1N | growth inhibition | % | -84.2 |
| COc1ccc(N)c(OC)c1 | growth inhibition | % | 12.9 |
| O=C(N/N=C\c1ccc(Cl)c(Cl)c1)c1ccncc1 | growth inhibition | % | 5.4 |

* * *

- ASSAY REMARKS: NCI Yeast Anticancer Drug Screen. Data for the cln2 rad14 strain (AID 165);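 also: 0% = growth equal to vehicle treated cultures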
- CONDITION DETAILS: S. cerevisiae cln2 rad14 strain, at 50.0 µM
The panel holds about 79,000 compounds, 15% with a hit somewhere; the sample as a whole holds those more often. The source made the active and inactive calls. Rule as the data show it: active = growth inhibition above about 70%; inactive = the rest.
Labels: active, inactive

| MOLECULE | GROUP LABEL |
| --- | --- |
| O=C(/C=C\c1ccccc1)OCc1ccccc1CN1CCCCC1 | inactive |
| O=C(Nc1ccccc1O)c1ccc([N+](=O)[O-])cc1 | inactive |
| Clc1ccccc1-c1c2ccccc2cc2ccc3ccccc3c12 | inactive |
| N#CC(NCc1ccccc1)c1ccccc1 (stereo not drawn) | inactive |
| CN(C)S(=O)(=O)N1CCOCC1 | inactive |
| NCC(N)C(O)C(O)C(O)CO (stereo not drawn) | inactive |
| COc1ccc(NNc2ccc(OC)cc2)cc1 | inactive |
| O=C(O)C(Br)C1(Br)c2ccccc2-c2ccccc21 (stereo not drawn) | active |
| COc1cc(/C=C/C(C)=O)ccc1OP(=O)(O)O | inactive |
| CCOC(=O)/C(C#N)=C\Nc1ccc(C)cc1 | inactive |
| C/C(=N/O)c1ccc[cH-]1.[Fe+2].c1cc[cH-]c1 | inactive |
| O=C(Nc1cccc(Cl)c1Cl)Oc1cccc2ccccc12 | inactive |
| CN(C)c1c([N+](=O)[O-])cc2[nH]cnc2c1[N+](=O)[O-] | inactive |

* * *

- ASSAY REMARKS: NCI Yeast Anticancer Drug Screen. Data for the bub3 strain (AID 167)
- CONDITION DETAILS: S. cerevisiae bub3 mutant strain, at 50.0 µM, hits give high values
Compounds without any hit were thinned out: in the full panel of roughly 79,000, 15% have a hit.
Consider the following compounds and their measured growth inhibition readings.
RECORDED ENDPOINT: growth inhibition (%)

| COMPOUND | RECORDED ENDPOINT | UNIT DESCRIPTOR | VALUE OBSERVED |
| --- | --- | --- | --- |
| OCCN(Cc1ccccc1)C(c1ccccc1)C(O)c1ccccc1 (stereo not given) | growth inhibition | % | 1.7 |
| NC(=O)C(=O)NNC(=O)Nc1ccc(Cl)cc1 | growth inhibition | % | 1.75 |
| COc1cc(Cl)ccc1NC(=O)Oc1ccc2ccccc2c1 | growth inhibition | % | 14.4 |
| CCOC(=O)CC(=O)Cc1oc2c(C(C)=O)c(O)c(C)c(O)c2c1C | growth inhibition | % | 2.85 |
| COc1ccc(NC(=O)CCCC(=O)CC(=O)c2ccc(Cl)cc2)c(OC)c1 | growth inhibition | % | -1.95 |
| O=C(/C=C(\C(=O)c1cccs1)c1cccs1)c1ccc(C(=O)/C=C(\C(=O)c2cccs2)c2cccs2)cc1 | growth inhibition | % | -15.6 |
| Clc1ccccc1Nc1c2ccccc2nc2ccccc12 | growth inhibition | % | 88.7 |
| CC(=O)Nc1ccc(C=O)cc1[N+](=O)[O-] | growth inhibition | % | -0.6 |
| Cc1cc2c(C(C)C)c(O)c(O)c(C=Nc3ccc(N=Nc4ccccc4)cc3)c2c(O)c1-c1c(C)cc2c(C(C)C)c(O)c(O)c(C=Nc3ccc(N=Nc4ccccc4)cc3)c2c1O | growth inhibition | % | -3.35 |
| CC1CCCc2c1c1ccc3c(O)cccc3c1oc2=O (stereo not given) | growth inhibition | % | -5.95 |

* * *

- ASSAY REMARKS: NCI Yeast Anticancer Drug Screen. Data for the mec2-1 strain (AID 157)
- CONDITION DETAILS: S. cerevisiae mec2-1 strain, at 50.0 µM, hits give high values
This is part of a sample that, as a whole, favours compounds with a hit. Of some 79,000 tested, about 15% had one in any assay.
Listing of recorded growth inhibition by entry.

| COMPOUND | growth inhibition [%] |
| --- | --- |
| CN(C)c1nc(OC2C(C(O)CO)OC3OC(C)(C)OC32)nc(N(C)C)n1 (stereo unspecified) | -11.7 |
| Cc1nc2cc(N)c(F)cc2[nH]1 | -6.95 |
| COc1ccc2nc3cc(Cl)ccc3c(Nc3ccc(C(O)CCN(C)C)cc3)c2c1 (stereo unspecified) | -2.1 |
| CC1(C)CCC2(CC1)CC[N+](C)(CCC[N+](C)(C)C)CC2 | -8.4 |
| CC/C(=N\NC(=O)c1ccncc1)c1ccc(Cl)cc1 | 9.05 |
| C#CCn1cc(F)c(=O)n(CC#C)c1=O | -30.8 |
| Nc1ccccc1OCCOCCOc1ccccc1N | -2.65 |
| Cc1cc(-n2nnc3ccccc3c2=O)on1 | -30.7 |
| Cc1nnc(N)c(C#N)c1C | 2.3 |
| C=C1C(OC(C)=O)CC(OC(C)=O)C2(C)C(OC(C)=O)C(OC(C)=O)C3=C(C)C(OC(=O)/C=C/c4ccccc4)CC(C(OC(C)=O)C12)C3(C)C (stereo unspecified) | -12.1 |
| O=C(O)c1ccc(B(O)O)cc1[N+](=O)[O-] | 4.75 |

* * *

- ASSAY REMARKS: NCI Yeast Anticancer Drug Screen. Data for the mec2-1 strain (AID 157)
- CONDITION DETAILS: S. cerevisiae mec2-1 strain, at 50.0 µM, hits give high values
About 79,000 compounds went through this panel and 15% of them were active in at least one assay; those are over-represented in the sample as a whole. Calls of active or inactive are those of the source. Cut-off read from the data, not from the text of the source: active = growth inhibition above about 70%; inactive = the rest.
Below is a list of entries, each paired with its recorded growth inhibition value.
RECORDED ENDPOINT: growth inhibition

| COMPOUND | VALUE OBSERVED |
| --- | --- |
| NC(=O)C(CCc1ccccc1)(CCc1ccccc1)c1ccc2ccccc2c1 | 11.2% (inactive) |
| c1ccc(SC2CCSc3ccccc3C2Sc2ccccc2)cc1 (stereo not given) | -14.7% (inactive) |
| CC1=C(CCC(=O)O)c2cc3nc(cc4[nH]c(cc5[nH]c(cc1n2)c(C)c5C(C)O)c(C)c4C(C)O)C(C)=C3CCC(=O)O (stereo not given) | 5.2% (inactive) |
| NCCSSCCCCSSCCN | -0.7% (inactive) |
| Cc1cc(C)c(C)c(CC(C)(COS(C)(=O)=O)COS(C)(=O)=O)c1C | 11% (inactive) |
